Test system: A498 renal
Protocol notes: NCI tumour cell line growth inhibition, 48 h
Endpoint label: TGI

INPUT: Any idea what its TGI is? The compound is CCC1=C[C@@H]2CN(C1)Cc1c([nH]c3ccccc13)[C@@](C(=O)OC)(c1cc3c(cc1OC)N(C=O)[C@H]1[C@@](O)(C(=O)OC)[C@H](OC(C)=O)[C@]4(CC)[C@@H]5C[C@@H]5CN5CC[C@]31[C@@H]54)C2
OUTPUT: 0.0794 µM

INPUT: Any idea what its TGI is? The compound is C\C=C/C=C/C=C/C(=O)O
OUTPUT: > 100 µM

INPUT: Any idea what its TGI is? The compound is COC(=O)NC/C=C\c1nc(CC/C=C\C(=O)OC2CC3CC(=O)O[C@H](/C=C/CC(C)C)C[C@H]4CCC(C)C(C[C@H](OC)CC(C2)O3)O4)co1 (some centres undefined)
OUTPUT: 57.1 µM

INPUT: Any idea what its TGI is? The compound is CN(C)CCCN=C(N)N
OUTPUT: > 100 µM

INPUT: Any idea what its TGI is? The compound is Cc1nc2c(=O)[nH]c(=O)n(C)c2[nH]c1=O
OUTPUT: > 100 µM

INPUT: Any idea what its TGI is? The compound is c1ccc2c(c1)CCN(C1=NCCO1)C2
OUTPUT: > 10 µM

INPUT: Any idea what its TGI is? The compound is Cc1ccc(S(=O)(=O)Nc2nc3ccccc3c(=O)n2C2CCCCC2)cc1
OUTPUT: > 100 µM

INPUT: Any idea what its TGI is? The compound is CCCN=C1Nc2ccccc2[C@@H]2N(C)c3ccccc3C(C)C[C@]12C (some centres undefined)
OUTPUT: 28.6 µM

INPUT: Any idea what its TGI is? The compound is FC(F)(F)c1cccc(COCCN2CCN(Cc3cccc(C(F)(F)F)c3)CC2)c1
OUTPUT: 28.8 µM

INPUT: Any idea what its TGI is? The compound is CCN(CC)c1ccc2c(c1)Oc1ccc(N(C(C)=O)c3ccccc3)cc1C21OC(=O)c2ccccc21 (centres undefined)
OUTPUT: > 100 µM

INPUT: Any idea what its TGI is? The compound is CC1(C)NCCC[C@]2(C)[C@H]3C=CC4=C5C[C@](C)(CO)CC[C@]5(C)CC[C@@]4(C)[C@]3(C)CC[C@@H]12
OUTPUT: 24.5 µM

INPUT: Any idea what its TGI is? The compound is Clc1ccc(-n2nnc(C3=NCCCN3)c2-c2ccccc2)cc1
OUTPUT: > 100 µM

INPUT: Any idea what its TGI is? The compound is CC(=O)[CH-]C(=O)c1ccccc1.CC(=O)[CH-]C(=O)c1ccccc1.CC(=O)[CH-]C(=O)c1ccccc1.[Tl+3]
OUTPUT: > 100 µM

INPUT: Any idea what its TGI is? The compound is O=c1[nH]c(=S)c2cc3c(=S)[nH]c(=O)n(CCC(c4ccccc4)(c4ccccc4)c4ccccc4)c3nc2n1CCC(c1ccccc1)(c1ccccc1)c1ccccc1
OUTPUT: > 100 µM

INPUT: Any idea what its TGI is? The compound is N#CC(c1nc2ccccc2s1)c1nc(Cl)ncc1Br (centres undefined)
OUTPUT: > 100 µM

INPUT: Any idea what its TGI is? The compound is OC12C3C4CC5C(C4[C@@H]1Br)C2[C@@](O)(c1c(F)c(F)c(F)c(F)c1F)C53 (some centres undefined)
OUTPUT: > 100 µM

INPUT: Any idea what its TGI is? The compound is CCOC(=O)CN=C1Nc2ccccc2C(=O)N2CSCC12 (centres undefined)
OUTPUT: > 100 µM

INPUT: Any idea what its TGI is? The compound is NC(CCl)=NC1CN2CCC1CC2 (centres undefined)
OUTPUT: > 100 µM

INPUT: Any idea what its TGI is? The compound is c1nncn1C12C3C4C5C3C1C5C42 (centres undefined)
OUTPUT: > 100 µM

###

Tested on: HS 578T breast
Protocol notes: NCI tumour cell line growth inhibition, 48 h
Endpoint label: TGI (µM)
Reply numerically in µM, unit not repeated.

INPUT: Any idea what its TGI is? The molecule is COc1ccccc1C1=C2C(=O)N(C)C(c3ccccc3OC)=C2C(=O)N1C
OUTPUT: 97.1

INPUT: Any idea what its TGI is? The molecule is CC(=O)OC(CC(C)C)P1(=O)N(CC(C)(C)C)[C@@H]2CCCC[C@H]2N1CC(C)(C)C (stereo not given in full)
OUTPUT: 25.3

INPUT: Any idea what its TGI is? The molecule is O=C(Nc1ccc(-n2cc(-c3ccncc3)c(-c3ccc(O)c(Cl)c3)n2)cc1)c1cc(Cl)cc(Cl)c1
OUTPUT: 6.52

INPUT: Any idea what its TGI is? The molecule is O=c1c2ncn(C3CCCCO3)c2n(-c2ccccc2)c(=S)n1-c1ccccc1 (stereo not given)
OUTPUT: 53.6

INPUT: Any idea what its TGI is? The molecule is CC([C@H]1CCC2C3CCC4C[C@@H](NC=O)CC[C@]4(C)C3CC[C@@]21C)N(C)C (stereo not given in full)
OUTPUT: 12

###

Would you mind telling me the reported TGI of each entry?
Tested on: IGROV1 ovarian
Protocol notes: NCI tumour cell line growth inhibition, 48 h
Reply numerically in µM, unit not repeated.

INPUT: Any idea what its TGI is? The compound is CCOC(=O)CCCn1c(SC)nc2cc(-c3ccco3)[nH]c2c1=O
OUTPUT: 76.6

INPUT: Any idea what its TGI is? The compound is OC(C1=C/C(=C\c2ccncc2)c2ccccc21)c1ccncc1 (stereo not given)
OUTPUT: 52.4

###

Would you mind telling me the reported GI50 of each entry?
Tested on: NCI-H226 lung
Protocol notes: NCI tumour cell line growth inhibition, 48 h

INPUT: Any idea what its GI50 is? The molecule is COc1ccc2nc(-c3ccccc3)cc(Nc3ccc(C(C)=O)cc3)c2c1
OUTPUT: 0.94 µM

INPUT: Any idea what its GI50 is? The molecule is Nc1ccc(C(=O)c2ccc(N)c(Br)c2)cc1Br
OUTPUT: 4.27 µM

INPUT: Any idea what its GI50 is? The molecule is COc1ccc(/C=C2\CN(C(=O)C(Cl)Cl)C/C(=C\c3ccc(OC)c(OC)c3)C2=O)cc1OC
OUTPUT: 0.43 µM

INPUT: Any idea what its GI50 is? The molecule is CCCCCCCCCNCCCCCCCCC
OUTPUT: 1.83 µM

INPUT: Any idea what its GI50 is? The molecule is COC(=O)COc1ccc(/C=C2\N=C(c3ccccc3)N(c3cc(C(F)(F)F)ccc3Cl)C2=O)cc1
OUTPUT: 52.2 µM

INPUT: Any idea what its GI50 is? The molecule is CC(=O)C1CC2(c3ccc(C)cc3)C(c3ccc(C)cc3)=C(c3ccc(C)cc3)C1(c1ccc(C)cc1)S2=O (stereo not drawn)
OUTPUT: > 100 µM

INPUT: Any idea what its GI50 is? The molecule is C=C1C(=O)O[C@@H]2C1C[C@@H](O)/C(C)=C/C/C=C(\C)CCC[C@H](C)[C@H]2OC(C)=O (stereo partly drawn)
OUTPUT: 23.2 µM

INPUT: Any idea what its GI50 is? The molecule is O=C(c1cc(F)c(Cl)cc1Cl)N1N=C(c2ccccc2)CC1(O)c1ccccc1 (stereo not drawn)
OUTPUT: 17.3 µM

###

System: NCI/ADR-RES ovarian
Protocol notes: NCI tumour cell line growth inhibition, 48 h; in the data active = GI50 below about 0.43 µM; inactive = the rest
One label from this list, please: 1 = active, -1 = inactive

INPUT: Each molecule tested received a call. Report the one for COc1cc(C(=O)O[C@H](C(=O)NCCNC(=O)[C@@H](OC(=O)c2cc(OC)cc3c(C)cccc23)[C@]2(C)CO2)[C@]2(C)CO2)c2cccc(C)c2c1 .
OUTPUT: 1

INPUT: Each molecule tested received a call. Report the one for O=C(Nc1ccc(-n2cc(-c3ccncc3)c(-c3ccc(O)c(Cl)c3)n2)cc1)c1cc(Cl)cc(Cl)c1 .
OUTPUT: -1

INPUT: Each molecule tested received a call. Report the one for N=C1c2nc3n(c2C(=O)c2nc4n(c21)CCCC4)CCCC3 .
OUTPUT: -1

INPUT: Each molecule tested received a call. Report the one for CCCCCNC(=O)[C@@H]1CCCN2C(=O)CC[C@H](NC(=O)[C@H](Cc3ccc(OP(=O)(O)O)cc3)NC(C)=O)C(=O)N12 .
OUTPUT: -1

INPUT: Each molecule tested received a call. Report the one for N#CC1=C(N)NC(=S)NC12Nc1ccccc1O2 (configuration not stated) .
OUTPUT: -1

INPUT: Each molecule tested received a call. Report the one for CCC1=C[C@@H]2CN(C1)Cc1c([nH]c3ccccc13)[C@@](C(=O)OC)(c1cc3c(cc1OC)N(C=O)[C@H]1[C@@](O)(C(=O)OC)[C@H](OC(C)=O)[C@]4(CC)[C@@H]5C[C@@H]5CN5CC[C@]31[C@@H]54)C2 .
OUTPUT: -1

INPUT: Each molecule tested received a call. Report the one for CC1(C)NCCC[C@]2(C)[C@H]3C=CC4=C5C[C@](C)(CO)CC[C@]5(C)CC[C@@]4(C)[C@]3(C)CC[C@@H]12 .
OUTPUT: -1
